Where do the numbers come from? From paper PMC7949108.

Biological target: Ded1-S371F (Saccharomyces cerevisiae, UniProt P06634 1-604, S371F)
Sequence (P06634 whole entry S371F): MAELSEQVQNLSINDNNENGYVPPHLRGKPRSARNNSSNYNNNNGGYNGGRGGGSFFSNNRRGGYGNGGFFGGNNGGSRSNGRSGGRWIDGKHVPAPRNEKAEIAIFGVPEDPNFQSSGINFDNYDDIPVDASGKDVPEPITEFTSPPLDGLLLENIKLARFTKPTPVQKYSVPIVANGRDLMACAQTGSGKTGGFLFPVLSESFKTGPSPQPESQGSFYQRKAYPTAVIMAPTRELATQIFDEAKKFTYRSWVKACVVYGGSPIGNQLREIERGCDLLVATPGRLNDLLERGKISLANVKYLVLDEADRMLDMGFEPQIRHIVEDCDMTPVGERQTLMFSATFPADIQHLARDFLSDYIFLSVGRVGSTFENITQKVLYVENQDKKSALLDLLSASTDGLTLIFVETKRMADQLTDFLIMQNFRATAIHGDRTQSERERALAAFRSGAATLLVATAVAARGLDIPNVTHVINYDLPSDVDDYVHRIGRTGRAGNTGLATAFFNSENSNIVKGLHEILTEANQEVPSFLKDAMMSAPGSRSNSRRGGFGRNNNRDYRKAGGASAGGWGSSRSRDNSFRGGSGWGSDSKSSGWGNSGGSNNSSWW
Assay: fluorescence anisotropy; 2 mM ADP-BeFx; 20 mM HEPES pH 7.5, 40 mM NaCl, 20% glycerol, 2 mM ADP-BeFx; 2 nM RNA, 0-400 nM protein, 30 min; temperature not stated
Details: protein: recombinant; tags: His (pET28a); label: 5' 6-carboxyfluorescein; single strand
pKd: −log10 of the molar value.

- BINDER: "AGCACCGUAAAGACGC (ssRNA) [16-mer RNA oligomer]"
  pKd: 7.96
